# Study Target: S1P1 receptors (Homo sapiens, UniProt P21453)
# Sequence (P21453 whole entry): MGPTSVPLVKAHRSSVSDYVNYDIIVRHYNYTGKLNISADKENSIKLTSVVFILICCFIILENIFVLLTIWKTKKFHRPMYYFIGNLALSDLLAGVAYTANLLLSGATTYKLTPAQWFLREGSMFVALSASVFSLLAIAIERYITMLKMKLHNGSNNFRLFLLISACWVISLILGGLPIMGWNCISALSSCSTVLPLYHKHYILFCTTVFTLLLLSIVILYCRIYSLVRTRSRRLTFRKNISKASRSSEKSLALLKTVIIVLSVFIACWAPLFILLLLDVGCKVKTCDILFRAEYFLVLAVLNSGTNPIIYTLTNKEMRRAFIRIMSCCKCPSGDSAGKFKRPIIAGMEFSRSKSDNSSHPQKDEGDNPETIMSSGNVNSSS
# Assay Comment: 35S-GTPyS binding assay
# Assay type: biochemical
# Condition Summary: 35S-GTPyS binding to membranes, 90 min at room temperature; 10 μM S1P used as 100% maximum efficacy
pEC50: −log10 of the molar value.

Molecule	pEC50
CCc1ncc(-c2nc(-c3cc(C)c(CCC(N)=O)c(C)c3)no2)c2c1CC(C)(C)CC2	7.54
CNc1ncc(-c2nc(-c3cc(C)c(OCCN)c(C)c3)no2)c2c1CC(C)(C)CC2	7.79
Cc1cc(-c2noc(-c3cncc4c3CCC(C)(C)C4)n2)cc(C)c1CCNCC(F)F	7.71
Cc1cc(-c2noc(-c3cncc4c3CCC(C)(C)C4)n2)cc(C)c1CC(O)CO (stereo not shown)	7.72

* * *

# Study Target: S1P1 receptors (Homo sapiens, UniProt P21453)
# Assay Comment: 35S-GTPyS binding assay
# Condition Summary: 35S-GTPyS binding to membranes, 90 min at room temperature; 10 μM S1P used as 100% maximum efficacy
Each entry below carries its recorded EC50.

Compound	EC50 (nM)
CCc1ncc(-c2nc(-c3cc(C)c(CCN)c(C)c3)no2)c2c1CC(C)(C)CC2 [Example 7]	10.8
Cc1cc(-c2noc(-c3cnc(N(C)C)c4c3CCC(C)(C)C4)n2)cc(C)c1CC(O)CO (stereo not shown) [Example 37]	21.7
Cc1cc(-c2noc(-c3cnc(C4CC4)c4c3CCC(C)(C)C4)n2)cc(C)c1CCC(=O)O [Example 8]	28.5
Cc1cc(-c2noc(-c3cncc4c3CCC(C)(C)C4)n2)cc(C)c1CCN1CC(C(=O)O)C1 [Example 25]	36.7
